Would you mind telling me the reported folding stability dG of each entry?
B1: EHEE_rd2_0196 (parent)
chain: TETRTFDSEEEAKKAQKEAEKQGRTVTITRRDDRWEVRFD

Variants of: B1
Assay: folding stability dG (cDNA display proteolysis); higher = more stable
Settings: PBS, room temperature
Remember to put the unit after the number in your answer.

Take a look at these entries with their results.
[
  {
    "variant id": "G23N",
    "folding stability dG": "2.01 kcal/mol"
  },
  {
    "variant id": "R34D",
    "folding stability dG": "2.03 kcal/mol"
  }
]

Pending variant:
Please fill in: folding stability dG reported for S8L = 2.02 kcal/mol

Just for reference, the MegaScale stability set (Tsuboyama et al. 2023) is where these values come from.
